Ref: patent US20190343828A1

Listing of entries alongside the reported IC50.
# Tested on: Hodgkin's lymphoma cells (L540cy)
# methodSummary: In vitro cytotoxicity, CellTiter-Glo 96 h, L540cy
# reportedConditions: read-out: Cytotoxic potency (IC50 class), L540cy

{"molecule": "CC[C@@]1(O)C(=O)OCc2c1cc1n(c2=O)Cc2c-1nc1cc3c(cc1c2CN1CCN(C)CC1)OCO3 [Compound 5h]", "IC50": "0.001 to 0.01 µM"}
{"molecule": "CC[C@@]1(O)C(=O)OCc2c1cc1n(c2=O)Cc2c-1nc1cc3c(cc1c2CNCc1ccc(OC)cc1)OCO3 [Compound 5l]", "IC50": "0.01 to 0.1 µM"}
{"molecule": "CC[C@@]1(O)C(=O)OCc2c1cc1n(c2=O)Cc2c-1nc1cc3c(cc1c2CNC(=O)CN)OCO3 [Compound 4b]", "IC50": "0.01 to 0.1 µM"}
{"molecule": "CCNCc1c2c(nc3cc4c(cc13)OCO4)-c1cc3c(c(=O)n1C2)COC(=O)[C@]3(O)CC [Compound 5a]", "IC50": "0.001 to 0.01 µM"}
{"molecule": "CC[C@@]1(O)C(=O)OCc2c1cc1n(c2=O)Cc2c-1nc1cc3c(cc1c2C1CC1)OCO3 [Compound 6m]", "IC50": "0.0001 to 0.001 µM"}
{"molecule": "CC[C@@]1(O)C(=O)OCc2c1cc1n(c2=O)Cc2c-1nc1cc3c(cc1c2CNC1CCCCC1)OCO3 [Compound 5d]", "IC50": "0.001 to 0.01 µM"}
{"molecule": "CC[C@@]1(O)C(=O)OCc2c1cc1n(c2=O)Cc2c-1nc1cc3c(cc1c2C1CCCC1)OCO3 [Compound 6i]", "IC50": "0.001 to 0.01 µM"}
{"molecule": "CC[C@@]1(O)C(=O)OCc2c1cc1n(c2=O)Cc2c-1nc1cc3c(cc1c2C(C)(C)C)OCO3 [Compound 6l]", "IC50": "0.001 to 0.01 µM"}
{"molecule": "CCc1c2c(nc3ccc(O)cc13)-c1cc3c(c(=O)n1C2)COC(=O)[C@]3(O)CC [Compound 8d]", "IC50": "0.01 to 0.1 µM"}
{"molecule": "CCCCCCc1c2c(nc3cc4c(cc13)OCO4)-c1cc3c(c(=O)n1C2)COC(=O)[C@]3(O)CC [Compound 6k]", "IC50": "0.001 to 0.01 µM"}
{"molecule": "CC[C@@]1(O)C(=O)OCc2c1cc1n(c2=O)Cc2c-1nc1cc3c(cc1c2CNC(=O)CO)OCO3 [Compound 4a]", "IC50": "0.01 to 0.1 µM"}
{"molecule": "CCC(CC)Cc1c2c(nc3cc4c(cc13)OCO4)-c1cc3c(c(=O)n1C2)COC(=O)[C@]3(O)CC [Compound 6g]", "IC50": "0.001 to 0.01 µM"}
{"molecule": "CC[C@@]1(O)C(=O)OCc2c1cc1n(c2=O)Cc2c-1nc1cc3c(cc1c2CN(CCN)CCO)OCO3 [Compound 5q]", "IC50": "0.01 to 0.1 µM"}
{"molecule": "CC[C@@]1(O)C(=O)OCc2c1cc1n(c2=O)Cc2c-1nc1cc3c(cc1c2CO)OCO3 [Compound 8c]", "IC50": "0.0001 to 0.001 µM"}
